Test system: biotinyl-Leu-oxazolone
Assay: self-aminoacylation, catalytic enhancement (BLO) (fold over background); higher = more active; k-Seq, kA / k0A0; sequences stand for … in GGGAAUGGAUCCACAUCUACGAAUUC…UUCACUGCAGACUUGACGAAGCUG
Fewer inactive variants are shown than the library holds.
property_label: self-aminoacylation
When you answer, write just the number.

Given the entry AUGUUAGCUAAUAGUCGCAAG [Fam3.1 aminoacylation ribozyme variant] , report its measured self-aminoacylation. 1.39

I have this sequence here, CUACUUCAAACAAUUGGUCGG [Fam1A.1 aminoacylation ribozyme variant] , and I need its recorded self-aminoacylation. 1.18

self-aminoacylation for AAGUAUGCUAAUAGUCGCAUG [Fam3.1 aminoacylation ribozyme variant] ? 1.55

Which value of self-aminoacylation has been reported for CUACUUCAAACACUCAGUCUG [Fam1A.1 aminoacylation ribozyme variant] in the records? 0.685

Which self-aminoacylation value is on record for CGACACUUCAAGGAAUCGGUC [Fam1B.1 aminoacylation ribozyme variant] ? 1.89

I'd like to know its self-aminoacylation. The sequence in question is CUACUUCAAACGCUCGGUCUG [Fam1A.1 aminoacylation ribozyme variant] 1.09

self-aminoacylation for AUUCACCUAGGCCAGCGGGUG [Fam2.2 aminoacylation ribozyme variant] ? 4.78

I have this sequence here, CUACGUCAAACAAACGGUCUG [Fam1A.1 aminoacylation ribozyme variant] , and I need its recorded self-aminoacylation. 1.16

---

System: biotinyl-Leu-oxazolone
Experiment: self-aminoacylation, catalytic enhancement (BLO) (fold over background); higher = more active; k-Seq, kA / k0A0; sequences stand for … in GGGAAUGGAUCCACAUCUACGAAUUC…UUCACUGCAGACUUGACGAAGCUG
Fewer inactive variants are shown than the library holds.
For each record, write down the corresponding self-aminoacylation.
Give the value as a plain number.

Consider the sequence shown here: AUUGCCCUAGGUCAUCGGGUG [Fam2.2 aminoacylation ribozyme variant] What is its recorded self-aminoacylation? 11.8

Can you share its self-aminoacylation? I mean this sequence: AUGCACCUCGGUCAUCGGGUG [Fam2.2 aminoacylation ribozyme variant] 6.47

Fill in the blank: the reported self-aminoacylation of AUUACCCGGGUCACCGAGUGA [Fam2.1 aminoacylation ribozyme variant] is ____. 21.4

What does the data say about its self-aminoacylation? Entry: CUACUUCUAACAAUGGGUCUG [Fam1A.1 aminoacylation ribozyme variant] 0.697

Item under review: AUUACCCUGGGGAUCGAGUGA [Fam2.1 aminoacylation ribozyme variant] . Reported self-aminoacylation? 3.34

---

Tested on: biotinyl-Trp-oxazolone
Test: self-aminoacylation, catalytic enhancement (BWO) (fold over background); higher = more active; k-Seq, kA / k0A0; sequences stand for … in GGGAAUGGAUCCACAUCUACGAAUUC…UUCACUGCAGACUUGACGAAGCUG
Variants at the floor of the assay were thinned out.
Lab note: anything with self-aminoacylation at or over 1 counts as Criterion met; the rest go in Criterion not met.

Form field: self-aminoacylation at least 1? Entry: CCACACUUAUAGCAAUCGGUC [Fam1B.1 aminoacylation ribozyme variant] Criterion not met

In plain terms: is recorded self-aminoacylation at least 1 for AUUCACCUCGGACAUCGGGUG [Fam2.2 aminoacylation ribozyme variant] ? Criterion met

Answer whether self-aminoacylation of AUAACCCUGGUCAUCGAGGGA [Fam2.1 aminoacylation ribozyme variant] is greater than or equal to 1. Criterion not met

Is it the case that CUAAUUCAAACAAACGGUCUG [Fam1A.1 aminoacylation ribozyme variant] has self-aminoacylation reaching or exceeding 1? Criterion not met

Threshold query (self-aminoacylation >= 1) on AUUCACCUUGGUCAUCAGGUG [Fam2.2 aminoacylation ribozyme variant] Criterion met

Decide: self-aminoacylation of CGACUUCAAACAAUCGGUCUU [Fam1A.1 aminoacylation ribozyme variant] >= 1? Criterion met

Does the sequence CCACACUUCAAGCAUUGGGUC [Fam1B.1 aminoacylation ribozyme variant] have recorded self-aminoacylation that is 1 or more? Criterion not met

// inclusive: self-aminoacylation at least 1? input: AAGUUUGCUACUAGUCCCAAG [Fam3.1 aminoacylation ribozyme variant] Criterion not met

Please indicate if the recorded self-aminoacylation for AAGUUUGCUAAAAGUCGGAAG [Fam3.1 aminoacylation ribozyme variant] meets or exceeds 1. Criterion met

---

For each of the sequences below, state its self-aminoacylation.
Tested on: biotinyl-Ile-oxazolone
Test: self-aminoacylation, catalytic enhancement (BIO) (fold over background); higher = more active; k-Seq, kA / k0A0; sequences stand for … in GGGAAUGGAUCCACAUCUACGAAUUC…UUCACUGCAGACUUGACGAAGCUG
Fewer inactive variants are shown than the library holds.
Give your answer as a number; write no unit.

If you can, please state the reported self-aminoacylation value of CCACACUUCAAGUAAUCGGUA [Fam1B.1 aminoacylation ribozyme variant] . 1.01

Fill in: self-aminoacylation of GUUACCCUGGUCAUCGAGCGA [Fam2.1 aminoacylation ribozyme variant] is ___ 2.84

# lookup: self-aminoacylation of AUUCUACUAGGUCAUCGGGUG [Fam2.2 aminoacylation ribozyme variant] 3.7

Item under review: AUUACCCUAGUCAACGAGUGA [Fam2.1 aminoacylation ribozyme variant] . Reported self-aminoacylation? 3.09

Fill in the blank: the reported self-aminoacylation of AGUACCCUGGUCAUCGACUGA [Fam2.1 aminoacylation ribozyme variant] is ____. 1.34

Any idea what self-aminoacylation was measured for CUACUUCAGACCAUCGGUCUG [Fam1A.1 aminoacylation ribozyme variant] ? 1.1

Given AAGUUUGCUAAUAGUACCAAG [Fam3.1 aminoacylation ribozyme variant] , state its recorded self-aminoacylation. 1.14

What self-aminoacylation value was documented for this sequence, AAGUGUGCUAAUAGUCGUAAG [Fam3.1 aminoacylation ribozyme variant] ? 1.54

# input sequence: UUUACCCUAGUCAUCGAGUGA [Fam2.1 aminoacylation ribozyme variant] ; wanted: its self-aminoacylation 2.79

---

Test system: biotinyl-Ile-oxazolone
Test: self-aminoacylation, catalytic enhancement (BIO) (fold over background); higher = more active; k-Seq, kA / k0A0; sequences stand for … in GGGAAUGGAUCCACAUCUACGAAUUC…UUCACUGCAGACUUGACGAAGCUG
Variants at the floor of the assay were thinned out.
property_label: self-aminoacylation
Respond using a number only.

Sample AUUCAACUAGGUGAUCGGGUG [Fam2.2 aminoacylation ribozyme variant] — what was its self-aminoacylation? 3.02

self-aminoacylation lookup needed for AAGUUUGCUAAUAGGCGCAAU [Fam3.1 aminoacylation ribozyme variant] , thanks. 1.6

Item under review: AUUACACUGGUCAUCGAGUUA [Fam2.1 aminoacylation ribozyme variant] . Reported self-aminoacylation? 1.18

Requested read-out: self-aminoacylation. Entry: CCCCACUUCAAGCAAUCCGUC [Fam1B.1 aminoacylation ribozyme variant] 1.62

Consider the sequence AUUACCCUGGUCACGGAGUGA [Fam2.1 aminoacylation ribozyme variant] and give its measured self-aminoacylation. 3.43

Which self-aminoacylation reading was recorded for the sequence ACUCACCAAGGUCAUCGGGUG [Fam2.2 aminoacylation ribozyme variant] ? 4.43

Data request, read-out self-aminoacylation, for GAGUUUGCUAAUAGUCGGAAG [Fam3.1 aminoacylation ribozyme variant] 1.38

Consider the sequence shown here: AUUCACCUAGGCCAACGGGUG [Fam2.2 aminoacylation ribozyme variant] What is its recorded self-aminoacylation? 2.23

Would you kindly share the measured self-aminoacylation for AUCACCCUGGUCCUCGAGUGA [Fam2.1 aminoacylation ribozyme variant] ? 4.01

Given the sequence CGACUUCAAACAAUCGGUAUG [Fam1A.1 aminoacylation ribozyme variant] , what is its reported self-aminoacylation? 1.09

Request the reported self-aminoacylation associated with AUUCACCUAGGUCAGCGGGGG [Fam2.2 aminoacylation ribozyme variant] 4.35

State the recorded self-aminoacylation for this entry: CAACACUGCAAGCAAUCGGUC [Fam1B.1 aminoacylation ribozyme variant] 1.12

Returns the measured self-aminoacylation for the input sequence. Input: AUUAGCCUGGUCACCGAGUGA [Fam2.1 aminoacylation ribozyme variant] 4.14

// query self-aminoacylation value for entry AAGUUUGCUAAUAGUCUCCAG [Fam3.1 aminoacylation ribozyme variant] 1.1

Quick one: self-aminoacylation for CCACACUUCGAGCAAUCCGUC [Fam1B.1 aminoacylation ribozyme variant] ? 1.28

For the sequence CUACUUCAAACAAUGCGUCUG [Fam1A.1 aminoacylation ribozyme variant] , what self-aminoacylation is on record? 1.17

Requested read-out: self-aminoacylation. Entry: CUACUUCAAGCAAUCGGUGUG [Fam1A.1 aminoacylation ribozyme variant] 1.26

For the sequence AUUACCGUGGUUAUCGAGUGA [Fam2.1 aminoacylation ribozyme variant] , what self-aminoacylation is on record? 4.22

Entry under review: CCACACUUCAAGCAAUAGGCC [Fam1B.1 aminoacylation ribozyme variant] . Reported self-aminoacylation? 0.939

Could you share which self-aminoacylation value was measured for AAGCACCUAGGUCAUCGGGUG [Fam2.2 aminoacylation ribozyme variant] ? 2.84

Record request: self-aminoacylation value, item CUACUUCAGCCAAUCGGUCUG [Fam1A.1 aminoacylation ribozyme variant] 0.691

Could you tell me which self-aminoacylation is on file for AAGUUUGCUCAUUGUCGCAAG [Fam3.1 aminoacylation ribozyme variant] ? 0.875

Any idea what self-aminoacylation was measured for CUACUUCAAACUAUUGGUCUG [Fam1A.1 aminoacylation ribozyme variant] ? 0.995

Find the recorded self-aminoacylation belonging to CUACUUCAAACAAUUGAUCUG [Fam1A.1 aminoacylation ribozyme variant] and report it. 0.832

May I ask what self-aminoacylation has been recorded for CUACUUCAAACACUCGGCCUG [Fam1A.1 aminoacylation ribozyme variant] ? 1.96

Need self-aminoacylation of AUACUUCAAACAAUCGGUGUG [Fam1A.1 aminoacylation ribozyme variant] , thanks. 1.05

Name the recorded self-aminoacylation for CUACUUCAAACAAUCGGUUGG [Fam1A.1 aminoacylation ribozyme variant] . 0.843

Name the reported self-aminoacylation value associated with the sequence AAGUUUGCUAAUAGUCGGUAG [Fam3.1 aminoacylation ribozyme variant] 0.974

Fill blank: measured self-aminoacylation of the sequence AAUACACUGGUCAUCGAGUGA [Fam2.1 aminoacylation ribozyme variant] is ____. 3.65

Consider the sequence shown here: AUUCGCUUAGGUCAUCGGGUG [Fam2.2 aminoacylation ribozyme variant] What is its recorded self-aminoacylation? 4.11

Give its self-aminoacylation value. Item: CUACUUCAAACUAUCGGUCUA [Fam1A.1 aminoacylation ribozyme variant] 0.944

Name the recorded self-aminoacylation for CUACUUCGAACAACCGGUCUG [Fam1A.1 aminoacylation ribozyme variant] . 0.822

// self-aminoacylation lookup, key: CUACUUCAAUCAAUCGGUUUG [Fam1A.1 aminoacylation ribozyme variant] 0.895

Name the reported self-aminoacylation value associated with the sequence CUACAUCAAACAAUCGGGCUG [Fam1A.1 aminoacylation ribozyme variant] 1.36

Which measured self-aminoacylation value corresponds to AUUCACCUAGGUCAUCGGGGG [Fam2.2 aminoacylation ribozyme variant] ? 4.62

Sourced from the supplement of paper PMC9233669
